The values you see were collected from patent US20160257732A1.

biological target: HA of A/Victoria/361/11 (H3N2) (influenza A virus); assay: cell-based or functional assay
experimental.endpoint: Neutralization IC50, H3-VC11 (µg/mL)
State just the number; it will be interpreted in µg/mL.

Task: State the recorded Neutralization IC50, H3-VC11 for this entry: Antibody 13 (antibody, V domains shown) VH: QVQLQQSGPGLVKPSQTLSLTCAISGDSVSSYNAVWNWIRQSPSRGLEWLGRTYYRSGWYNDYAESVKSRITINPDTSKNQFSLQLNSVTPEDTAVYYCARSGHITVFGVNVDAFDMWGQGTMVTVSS VL: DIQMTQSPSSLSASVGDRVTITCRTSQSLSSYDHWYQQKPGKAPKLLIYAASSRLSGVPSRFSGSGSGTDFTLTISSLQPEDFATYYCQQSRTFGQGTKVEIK
Result: 1.03

Task: # lookup: Neutralization IC50, H3-VC11 of Antibody 14 (antibody, V domains shown) VH: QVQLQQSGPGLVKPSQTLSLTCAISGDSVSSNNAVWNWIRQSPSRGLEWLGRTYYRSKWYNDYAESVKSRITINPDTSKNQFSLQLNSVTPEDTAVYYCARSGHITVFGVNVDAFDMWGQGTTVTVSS VL: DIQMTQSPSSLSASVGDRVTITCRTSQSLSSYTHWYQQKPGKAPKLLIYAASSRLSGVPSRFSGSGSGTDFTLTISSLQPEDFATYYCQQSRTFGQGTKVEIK
Result: 1.15

Task: Recorded Neutralization IC50, H3-VC11 for Antibody 15 (antibody, V domains shown) VH: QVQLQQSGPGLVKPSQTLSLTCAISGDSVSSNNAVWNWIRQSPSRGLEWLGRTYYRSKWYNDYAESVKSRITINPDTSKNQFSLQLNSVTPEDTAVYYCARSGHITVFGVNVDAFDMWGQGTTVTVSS VL: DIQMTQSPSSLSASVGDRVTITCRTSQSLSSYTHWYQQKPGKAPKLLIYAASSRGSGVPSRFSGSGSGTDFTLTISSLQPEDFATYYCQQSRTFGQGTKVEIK , please?
Result: 1.29
